Assayed System: T1, human IL-10 receptor (hIL-10R alpha and beta chains) on HEK-Blue IL-10 reporter cells (human, UniProt Q13651 22-578; Q08334 20-325)
T1 sequence 1: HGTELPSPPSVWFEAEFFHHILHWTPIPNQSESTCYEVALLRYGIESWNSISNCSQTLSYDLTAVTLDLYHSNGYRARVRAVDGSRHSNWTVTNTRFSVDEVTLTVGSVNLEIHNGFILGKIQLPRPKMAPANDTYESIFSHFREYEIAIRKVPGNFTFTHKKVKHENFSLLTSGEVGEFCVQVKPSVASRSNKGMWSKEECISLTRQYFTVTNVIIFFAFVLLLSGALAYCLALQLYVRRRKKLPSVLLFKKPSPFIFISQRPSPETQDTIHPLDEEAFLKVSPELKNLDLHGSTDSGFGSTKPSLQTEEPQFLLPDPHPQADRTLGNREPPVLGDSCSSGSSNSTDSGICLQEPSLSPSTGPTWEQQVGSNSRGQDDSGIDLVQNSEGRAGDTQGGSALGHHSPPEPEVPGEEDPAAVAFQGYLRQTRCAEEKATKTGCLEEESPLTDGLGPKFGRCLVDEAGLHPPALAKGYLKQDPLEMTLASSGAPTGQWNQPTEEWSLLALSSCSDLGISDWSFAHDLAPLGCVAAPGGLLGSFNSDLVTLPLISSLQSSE
T1 sequence 2: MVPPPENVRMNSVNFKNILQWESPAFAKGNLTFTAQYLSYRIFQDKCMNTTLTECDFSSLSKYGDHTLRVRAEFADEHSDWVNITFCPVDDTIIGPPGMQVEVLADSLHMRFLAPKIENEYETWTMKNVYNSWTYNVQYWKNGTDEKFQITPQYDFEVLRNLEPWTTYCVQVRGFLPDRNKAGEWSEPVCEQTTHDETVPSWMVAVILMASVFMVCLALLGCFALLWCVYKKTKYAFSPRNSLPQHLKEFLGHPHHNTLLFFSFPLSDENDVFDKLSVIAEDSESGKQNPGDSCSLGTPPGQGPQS
Test Method Notes: cell-based or functional assay
Measured Abs 630 (100 nM), listed per entry for reference.
Include the unit right after the number.

// known answers, use as guide
IL10R binding molecule of SEQ ID NO: 275 (bispecific antibody) QVQLQESGGGSVQAGGSLRLSCAASGYTYSMYCMGWFRQAPGKEREGVAQINSDGSTSYADSVKGRFTISKDNAKNTLYLQMNSLKPEDTAMYYCAADSRVYGGSWYERLCGPYTYEYNYWGQGTQVTVSSGGGSQVQLQESGGGSVQAGGSLRLSCAASGYSYSSYCMGWFRQAPGKEREGVATIDSDGMTRYADSVKGRFTISKDNAKNTLYLQMNSLKPEDTAMYYCAAPLYDCDSGAVGRNPPYWGQGTQVTVSSASHHHHHH    0.36 Abs 630
IL10R binding molecule of SEQ ID NO: 349 (bispecific antibody) QVQLQESGGGSVQTGGSLRLSCAASGYTYLRGCMGWFRQAPGKEREGVAVMDVVGDRRSYIDSVKGRFTISRDNAANSVYLQMDNLKPEDTAMYYCTAGPNCVGWRSGLDYWGQGTQVTVSSGGGSQVQLQESGGGSVQAGGSLRLSCAASGYTYSMYCMGWFRQAPGKEREGVAQINSDGSTSYADSVKGRFTISKDNAKNTLYLQMNSLKPEDTAMYYCAADSRVYGGSWYERLCGPYTYEYNYWGQGTQVTVSSASHHHHHH    0.38 Abs 630
IL10R binding molecule of SEQ ID NO: 313 (bispecific antibody) QVQLQESGGGSVQAGGSLRLSCAASGYTYSSYCMGWFRQAPGKEREGVAHIDSDGSTSYADSVKGRFTISKDNAKNTLYLQMNSLKPEDTAMYYCAADPIPGPGYCDGGPNKYWGQGTQVTVSSGGGSQVQLQESGGGSVQAGGSLRLSCAASRFTYSSYCMGWFRQAPGKEREGVASIDSDGSTSYTDSVKGRFTISKDNAKNTLYLQMNSLKPEDTAMYYCALDLMSTVVPGFCGFLLSAGMDYWGKGTQVTVSSASHHHHHH    0.39 Abs 630

Which Abs 630 (100 nM) reading was recorded for the binder IL10R binding molecule of SEQ ID NO: 304 (bispecific antibody) QVQLQESGGGSVQAGGSLRLSCAASGYSNCSYDMTWYRQAPGKEREFVSAIHSDGSTRYADSVKGRFFISQDNAKNTVYLQMNSLKPEDTAMYYCKTDPLHCRAHGGSWYSVRANYWGQGTQVTVSSGGGSQVQLQESGGGSVQTGGSLRLSCAASGYTYLRGCMGWFRQAPGKEREGVAVMDVVGDRRSYIDSVKGRFTISRDNAANSVYLQMDNLKPEDTAMYYCTAGPNCVGWRSGLDYWGQGTQVTVSSASHHHHHH ?
2.06 Abs 630

// same read-out, input: IL10R binding molecule of SEQ ID NO: 302 (bispecific antibody) QVQLQESGGGSVQAGGSLRLSCAASGYSNCSYDMTWYRQAPGKEREFVSAIHSDGSTRYADSVKGRFFISQDNAKNTVYLQMNSLKPEDTAMYYCKTDPLHCRAHGGSWYSVRANYWGQGTQVTVSSGGGSQVQLQESGGGSVEAGGSLRLSCAASGYTHSSYCMGWFRQAPGKEREGVAAIDVDGSTTYADSVKGRFTISKDNAKNTLYLQMNSLKPEDTGMYYCAAEFADCSSNYFLPPGAVRYWGQGTQVTVSSASHHHHHH
2.09 Abs 630
